B1: tRNA (parent)
chain: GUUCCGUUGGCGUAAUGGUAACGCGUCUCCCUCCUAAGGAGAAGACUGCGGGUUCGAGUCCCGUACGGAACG

variants of: B1; test: yeast fitness relative to wild type (ratio to wild type); higher = fitter; tRNA-Arg(CCU), competitive growth, 37 C, YPD
Fewer inactive variants are shown than the library holds.
ASSAY_READOUT: yeast fitness

The examples below pair each entry with its known result.
G9C A36U A45C G52A: ≤ 0.5
C49A A57C A69C: ≤ 0.5
U2C A15U A20U A69U: ≤ 0.5
A15C C31U G68C: ≤ 0.5
U7A G9A U13A G48A U54G C61A: ≤ 0.5

Task: Recall and state the measured yeast fitness for C5G C11A U16A A21U G67A .
Output: ≤ 0.5

Task: Recall and state the measured yeast fitness for U47A A65C C66G .
Output: ≤ 0.5

Task: Recall and state the measured yeast fitness for C4A C34G G38C A70G .
Output: ≤ 0.5

Task: Recall and state the measured yeast fitness for C4U C31U A43U G48A U53A .
Output: ≤ 0.5

Task: Recall and state the measured yeast fitness for C22U A40U G48A .
Output: ≤ 0.5

Task: Recall and state the measured yeast fitness for U3C U19A C27G C62U .
Output: ≤ 0.5

Task: Recall and state the measured yeast fitness for A45C C46G C49A A69U .
Output: ≤ 0.5

Task: Recall and state the measured yeast fitness for C4U C27A A43U G51C .
Output: ≤ 0.5

Task: Recall and state the measured yeast fitness for U3A G9A U19A G44C C61U C62G .
Output: ≤ 0.5

Task: Recall and state the measured yeast fitness for A15C G52C U64A .
Output: ≤ 0.5

Task: Recall and state the measured yeast fitness for G12C C33U U47C G48A G58A .
Output: ≤ 0.5

Task: Recall and state the measured yeast fitness for C4A C30G G41C G68A .
Output: ≤ 0.5

Task: Recall and state the measured yeast fitness for G6C U8C A21C .
Output: ≤ 0.5

Task: Recall and state the measured yeast fitness for U3G C60A C66U .
Output: ≤ 0.5

Task: Recall and state the measured yeast fitness for A20G G50A U59C .
Output: 0.571

Task: Recall and state the measured yeast fitness for U7A C30A .
Output: 0.669

Task: Recall and state the measured yeast fitness for G12A U13G U19C A21G G52A U59G .
Output: ≤ 0.5

Task: Recall and state the measured yeast fitness for U26G C61U G67A .
Output: ≤ 0.5

Task: Recall and state the measured yeast fitness for C11A C24G C30U C31U C61U G67C .
Output: ≤ 0.5

Task: Recall and state the measured yeast fitness for U3C A21U A69U .
Output: 0.537
